- target-desc: human GR (Homo sapiens, UniProt P04150)
- Sequence (P04150 1-777): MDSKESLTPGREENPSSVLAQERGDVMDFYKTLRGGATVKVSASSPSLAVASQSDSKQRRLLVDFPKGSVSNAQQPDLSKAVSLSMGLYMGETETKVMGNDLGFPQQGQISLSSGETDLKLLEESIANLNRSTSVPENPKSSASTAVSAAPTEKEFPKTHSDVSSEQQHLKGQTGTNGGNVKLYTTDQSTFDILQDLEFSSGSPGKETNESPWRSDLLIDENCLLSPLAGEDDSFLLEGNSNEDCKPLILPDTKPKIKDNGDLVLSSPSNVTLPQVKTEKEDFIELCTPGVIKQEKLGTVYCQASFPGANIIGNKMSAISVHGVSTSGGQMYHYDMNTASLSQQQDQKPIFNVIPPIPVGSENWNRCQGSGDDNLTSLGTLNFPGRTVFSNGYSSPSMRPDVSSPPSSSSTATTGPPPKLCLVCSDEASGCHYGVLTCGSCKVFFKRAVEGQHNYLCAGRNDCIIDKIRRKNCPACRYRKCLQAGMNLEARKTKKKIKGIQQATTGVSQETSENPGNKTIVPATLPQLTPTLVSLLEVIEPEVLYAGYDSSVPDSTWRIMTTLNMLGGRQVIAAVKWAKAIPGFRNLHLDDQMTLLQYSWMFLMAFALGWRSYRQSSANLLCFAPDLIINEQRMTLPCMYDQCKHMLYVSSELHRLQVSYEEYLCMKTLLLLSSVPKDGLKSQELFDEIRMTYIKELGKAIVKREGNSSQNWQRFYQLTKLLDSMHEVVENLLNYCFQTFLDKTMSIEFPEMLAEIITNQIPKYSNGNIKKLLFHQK
- method-notes: Transrepression Assay (GITAR), TNFα-β-lactamase reporter gene in U937 cells
- Format: cell-based
- Parameters: U937 cells contain an endogenous glucocorticoid receptor (GR); endogenous in cells; host or cells: U937 cells stably transfected with the TNF-α promoter/β-lactamase reporter only
- recorded-conditions: U-937; Table 1; U937 cells; activity repressed by 100 nM dexamethasone = 100%; read-out: Transrepression U937 Cells GITAR Emax (%)
quantity: Emax (%)
Entry rule: numbers only, all in %.

// worked examples, Emax included
{"compound": "CCCNC(=O)c1ccccc1CC[C@]1(O)CCC2=Cc3c(cnn3-c3ccc(F)cc3)C[C@@]21C [Example 30]", "target-desc": "human GR (Homo sapiens, UniProt P04150)", "value": 50}
{"compound": "COc1cccc(CC[C@]2(O)CCC3=Cc4c(cnn4-c4ccc(F)cc4)C[C@@]32C)c1C(N)=O [Example 189]", "target-desc": "human GR (Homo sapiens, UniProt P04150)", "value": 80}
{"compound": "CCS(=O)(=O)NCc1c(F)cccc1CC[C@]1(O)CCC2=Cc3c(cnn3-c3ccc(F)cc3)C[C@@]21C [Example 84]", "target-desc": "human GR (Homo sapiens, UniProt P04150)", "value": 60}
{"compound": "C[C@]12Cc3cnn(-c4ccc(F)cc4)c3C=C1CC[C@@]2(O)CCc1cccc(F)c1CNS(=O)(=O)C1CC1 [Example 88]", "target-desc": "human GR (Homo sapiens, UniProt P04150)", "value": 69}
{"compound": "C[C@]12Cc3cnn(-c4ccc(F)cc4)c3C=C1CC[C@@]2(O)CCc1ccc(F)cc1C#N [Example 163]", "target-desc": "human GR (Homo sapiens, UniProt P04150)", "value": 70}

Query :: For the compound CN(C)S(=O)(=O)Nc1c(F)cccc1CC[C@]1(O)CCC2=Cc3c(cnn3-c3ccc(F)cc3)C[C@@]21C [Example 113] , what Emax is on record?
Result :: 71

Query :: Reported Emax for C=CCNC(=O)c1ccccc1CC[C@]1(O)CCC2=Cc3c(cnn3-c3ccc(F)cc3)C[C@@]21C [Example 33] : what is it?
Result :: 62
